Procedure text: chemical genetic growth profiling, strain panel (AID 1159580);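 further: tested at 20 µM; growth read once vehicle control cultures reached saturation at 30 °C; 1 = growth at the plate median or of vehicle wells; lower values mean less growth of the strain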
Measurement context: S. cerevisiae deletion strains, growth OD, locus YDR101C, strain arx1, active compounds read low
The campaign covered roughly 5,500 compounds. About 2,000 (36%) were called active. Inconclusive results (about 18%) are left out. Some of the results follow.
Please go through the items and note down their normalized growth.
Give bare numbers.

Batch of 2 compounds: report normalized growth for each.
1. CC(=O)c1c(O)c(C)c(O)c2c1OC1=CC(=O)C(C(C)=O)C(=O)C12C (configuration not stated)
2. CC(C)=CCC[C@](C)(O)C1CC=C(C)CC1 (some centres not stated)

1: 0.89; 2: 0.976

Please report normalized growth for every entry that follows.
1. c1ccc2c(c1)cc1ccc3cccc4ccc2c1c34
2. O=[N+]([O-])c1cc([As](=O)(O)O)ccc1O
3. Cc1ccc2cc3c(ccc4ccccc43)c3c2c1CC3
4. CC(=O)Nc1cc([As](=O)(O)O)ccc1O
5. COC(C)(C)CCC[C@H](C)C/C=C/C(C)=C/C(=O)OC(C)C
6. C=C[C@](C)(O)CCC=C(C)C
7. CS(=O)(=O)CCCCN=C=S
8. CC(C)N(C(=O)SCC(Cl)=C(Cl)Cl)C(C)C

1: 0.995; 2: 0.759; 3: 0.96; 4: 0.936; 5: 1.02; 6: 1.04; 7: 0.742; 8: 0.998

List normalized growth for every entry below, keeping the order given.
1. COc1ccccc1OCCNCC(O)COc1cccc2[nH]c3ccccc3c12 (configuration not stated)
2. CC1(C)C(O)CC(O)C2(C)C1CC(=O)C1(C)C2CCC2(C)C(C(=O)O)OC(=O)C3OC321 (configuration not stated)

1.01
1

* * *

Would you mind telling me the reported normalized growth of each entry?
Procedure text: chemical genetic growth profiling, strain panel (AID 1159580)
Measurement context: S. cerevisiae deletion strains, growth OD, locus YHR129C, strain ARP1, active compounds read low
Among all 5,500 compounds or so, about 2,000 (36%) were called active. Roughly 18% stayed inconclusive and do not appear here. The list shows a part of the results.
Numbers only.

Consider the following illustrative entries.
In [3]: df
Out[3]:
           chemical_string  measured_quantity  measured_value
0  O=C(O)/C=C/C=C/c1ccccc1  normalized growth            0.96
1   COC(=O)Oc1ccccc1C(=O)O  normalized growth            1.01

// next item, normalized growth requested
Give the measured normalized growth for "Oc1c(I)cc(I)c2cccnc12"
0.0776

* * *

Procedure text: chemical genetic growth profiling, strain panel (AID 1159580)
Measurement context: S. cerevisiae deletion strains, growth OD, locus YJL095W, strain BCK1
Screen size: about 5,500 compounds; about 2,000 (36%) were called active. Inconclusive results (about 18%) are left out. No stated cut-off is given here; in the data, active means normalized growth mostly below about 0.91 (no sharp cut-off); inconclusive means no clear call, values can overlap the other calls; inactive means mostly above about 0.92. This is one part of the list.
A correct response names exactly one class from active, inactive

>>> print(df.to_string())
                  compound  discrete_label
0  O=C(O)c1ccccc1Nc1ccccc1          active

Hi, sorry to bother you, what did the test record for "O=C(CCCCCCCCCCCCC1CCCC1)Nc1ccc(S(=O)(=O)c2ccc(NC(=O)CCCCCCCCCCCCC3CCCC3)cc2)cc1" ?
inactive

What did this assay record as the result for "O=C(O)CF" ?
inactive

Which outcome was assigned to CC1(C)C(C(Cl)Cl)C2(Cl)C(Cl)C(Cl)C1(Cl)C2(Cl)Cl (configuration not stated) in this test?
inactive

* * *

Procedure text: chemical genetic growth profiling, strain panel (AID 1159580);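 further: tested at 20 µM; growth read once vehicle control cultures reached saturation at 30 °C; 1 = growth at the plate median or of vehicle wells; lower values mean less growth of the strain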
Measurement context: S. cerevisiae deletion strains, growth OD, locus YJR066W, strain TOR1 (second series), active compounds read low
The whole screen tested about 5,500 compounds, of which about 2,000 (36%) were called active. Inconclusive results (about 18%) are left out. This is one part of the list.
Measured quantity: normalized growth
Numbers only.

Below: 4 compounds and their reported normalized growth.
In [3]: df
Out[3]:
                                   compound  measured_quantity  measured_value
0  N#CC(C#N)=C/C=C(/Sc1ccc(F)c(Cl)c1)c1ccc(Cl)cc1  normalized growth           0.748
1  CCOC(=O)/C(=N/Nc1c(Cl)cccc1Cl)c1csc(N)n1  normalized growth           0.868
2           CSc1cc(-c2ccncc2)nc(-c2cccs2)c1  normalized growth            0.95
3        CC(=O)Nc1ccc(/C=C/[N+](=O)[O-])cc1  normalized growth           0.732

Consider the following items and state reported normalized growth for each.
1. CSc1ccc(/C=C(\C)[N+](=O)[O-])cc1
2. OC(CNCc1ccc(Cl)cc1)CO/N=C\C1=C(Cl)c2cc(Cl)ccc2OC1 (stereo not given)
3. NC(=Nc1ccc(F)cc1)SCc1c(Cl)cccc1Cl
4. COc1ccc(C(=O)CSC2=NCCc3ccccc32)cc1
5. CCCc1c(C(=O)NC2Cc3ccccc3C2)cnn1-c1ccccc1
6. O=C1CSC(c2cccnc2)N1c1ccc(Cl)cc1Cl (stereo not given)
7. O=C(NCCSCc1cccc(C(F)(F)F)c1)Nc1cccc(C(F)(F)F)c1
8. FC(F)(F)c1cccc(NNC(=S)Nc2ccccc2)c1

0.0953
1
0.99
1
0.93
0.893
0.993
0.812

* * *

Can you tell me normalized growth for the items I'm about to list?
Procedure text: chemical genetic growth profiling, strain panel (AID 1159580);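 further: tested at 20 µM; growth read once vehicle control cultures reached saturation at 30 °C; 1 = growth at the plate median or of vehicle wells; lower values mean less growth of the strain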
Measurement context: S. cerevisiae deletion strains, growth OD, locus YIL073C, strain SPO22, active compounds read low
In all, about 5,500 compounds went through this assay and about 2,000 (36%) were called active. Inconclusive results (about 18%) are left out. The list shows a part of the results.
Numbers only.

Compound	Measured quantity	Measured value
COc1c2c(cc3c1OCO3)CCN(C)C2	normalized growth	1.01
Nc1ncnc2c1ncn2C1O[C@H](COP(=O)(O)O)[C@@H](O)[C@H]1O (some centres not stated)	normalized growth	1.03
Oc1c(Cl)cc(Cl)c2cccnc12	normalized growth	0.128
C=C(CC)C(=O)c1ccc(OCC(=O)O)c(Cl)c1Cl	normalized growth	0.995
NC[C@H](O)c1ccc(O)c(O)c1	normalized growth	1.03

For each of the compounds below, state normalized growth.
1. O=C1C=CC2=C3c4cc(O)c(O)cc4C[C@@]3(O)COC2=C1
2. CC(=O)O[C@@H]1C[C@@]2(C)[C@H](c3ccoc3)C[C@H]3O[C@]32[C@]2(C)C(=O)C(O)=C3C(C)(C)C(=O)C=C[C@]3(C)C12 (some centres not stated)
3. COC(=O)Oc1ccccc1C(=O)O
4. C1CCN2CC3CC(CN4CCCCC34)C2C1 (configuration not stated)
5. O[N+]1=CC=CCC1=S.On1ccccc1=S.[Zn]
6. CCN(CC)CCNC(=O)c1cc(S(C)(=O)=O)ccc1OC
7. CCCCC(CC)CN1CN(CC(CC)CCCC)CC(C)(N)C1 (configuration not stated)
8. CCCC(C)C1(CC)C(=O)NC(=O)NC1=O (configuration not stated)

[0.996, 0.811, 1.03, 1.07, 0.113, 1.1, 0.364, 1.08]

* * *

Procedure text: chemical genetic growth profiling, strain panel (AID 1159580);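 further: tested at 20 µM; growth read once vehicle control cultures reached saturation at 30 °C; 1 = growth at the plate median or of vehicle wells; lower values mean less growth of the strain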
Measurement context: S. cerevisiae deletion strains, growth OD, locus YMR231W, strain pep5
The whole screen tested about 5,500 compounds, of which about 2,000 (36%) were called active. Another 18% or so got no clear call; they are omitted. Cut-off read from the data, not from the text of the source: active = normalized growth mostly below about 0.91 (no sharp cut-off); inconclusive = no clear call, values can overlap the other calls; inactive = mostly above about 0.92. This is one part of the list.
Outcomes you can answer with include only these: active, inactive

>>> print(df.to_string())
                                   compound  discrete_label
0  CN/C(=C\[N+](=O)[O-])NCCSCc1ccc(CN(C)C)o1        inactive
1  CC1(C)C(C(Cl)Cl)C2(Cl)C(Cl)C(Cl)C1(Cl)C2(Cl)Cl (configuration not stated)        inactive
2      CCOP(=S)(OCC)SCn1c(=O)oc2cc(Cl)ccc21        inactive
3                                  O=C(O)CF        inactive
4  C=CC(C)(O)CC/C=C(\C)CCC=C(C)C (configuration not stated)        inactive
5       O=[N+]([O-])c1cc([As](=O)(O)O)ccc1O        inactive
6  CCCCC1=NC2(CCCC2)C(=O)N1Cc1ccc(-c2ccccc2-c2nn[nH]n2)cc1        inactive
7      C=C(CC)C(=O)c1ccc(OCC(=O)O)c(Cl)c1Cl        inactive

Given "O=[N+]([O-])c1ccc(O)c([N+](=O)[O-])c1" , state the outcome it received in this test.
active

Can you look up the reported call for "Nc1ccc(C(=O)NCC(=O)O)cc1" for me?
inactive

What call does the record list for "O=C1C=CC2=C3c4cc(O)c(O)cc4C[C@@]3(O)COC2=C1" ?
inactive

Would you mind telling me which call this test gave "CN[C@H](CC(=O)O)C(=O)O" ?
inactive
